tested on: p-ERK in AsPC-1 cells (KRAS G12D mutation); test: Cell p-ERK assay (HTRF) in AsPC-1 cells; format: cell-based, human; settings: Homo sapiens, ASPC1, 3 h, AsPC-1 cells, 3 h compound incubation, HTRF p-ERK T202/Y204; read-out: AsPC-1 p-ERK IC50
pIC50: −log10 of the molar value.
metric name: pIC50

CCn1c(-c2cc(C#CCN3CC(N=S(C)(C)=O)C3)cnc2[C@H](C)OC)c2c3cc(ccc31)-c1csc(n1)C[C@H](NC(=O)[C@H]1[C@H](C)[C@@H]1C)C(=O)N1CCC[C@H](N1)C(=O)OCC(C)(C)C2 [Compound Z1046]    9.15
CCn1c(-c2cc(C3(N(C)C(=O)CN(C)C)CC3)cnc2[C@H](C)OC)c2c3cc(ccc31)-c1csc(n1)C[C@H](NC(=O)[C@H]1[C@H](C)[C@@H]1C)C(=O)N1CCC[C@H](N1)C(=O)OCC(C)(C)C2 [Compound Z372]    7.50
CC[C@H](C)C(=O)N[C@H]1Cc2nc(cs2)-c2ccc3c(c2)c(c(-c2cc(OCCN4CCS(=O)(=O)CC4)cnc2[C@H](C)OC)n3CC)CC(C)(C)COC(=O)[C@@H]2CCCN(N2)C1=O (atropisomer, axis not shown; (Ra)) [Compound Z609]    9.12
CCn1c(-c2cc(C#CCN3CCC3)cnc2[C@H](C)OC)c2c3cc(ccc31)-c1csc(n1)C[C@H](NC(=O)[C@H]1[C@H](C)[C@@H]1C)C(=O)N1CCC[C@H](N1)C(=O)OCC(C)(C)C2 (single isomer, unassigned) [Compound Z554]    9.17

---

system: p-ERK in AsPC-1 cells (KRAS G12D mutation); test: Cell p-ERK assay (HTRF) in AsPC-1 cells; type: cell-based, human; settings: Homo sapiens, ASPC1, 3 h, AsPC-1 cells, 3 h compound incubation, HTRF p-ERK T202/Y204; read-out: AsPC-1 p-ERK IC50
metric name: IC50 (nM)

CCn1c(-c2cc(OCCN3CCOC4(CC4)C3)cnc2[C@H](C)OC)c2c3cc(ccc31)-c1csc(n1)C[C@H](NC(=O)[C@@H]1[C@@H](C)[C@H]1c1ccncn1)C(=O)N1CCC[C@H](N1)C(=O)OCC(C)(C)C2 (atropisomer, axis not shown; (Ra))    3.99
CCn1c(-c2cc(N3CCN(C4(c5cccc(C)n5)CC4)CC3)cnc2[C@H](C)OC)c2c3cc(ccc31)-c1csc(n1)C[C@H](NC(=O)[C@H]1[C@H](C)[C@@H]1C)C(=O)N1CCC[C@H](N1)C(=O)OCC(C)(C)C2    2.01
CCn1c(-c2cc(C#CCN3CCC(Nc4ccccc4P(C)(C)=O)CC3)cnc2[C@H](C)OC)c2c3cc(ccc31)-c1csc(n1)C[C@H](NC(=O)[C@H]1[C@H](C)[C@@H]1C)C(=O)N1CCC[C@H](N1)C(=O)OCC(C)(C)C2 (atropisomer, axis not shown; (Ra))    0.82
CCn1c(-c2cc(OCCN3CC[S+]([O-])CC3)cnc2[C@H](C)OC)c2c3cc(ccc31)-c1csc(n1)C[C@H](NC(=O)[C@H]1[C@H](C)[C@@H]1C)C(=O)N1CCC[C@H](N1)C(=O)OCC(C)(C)C2 (atropisomer, axis not shown; (Ra))    0.51

---

// reported pIC50 per item
tested on: p-ERK in AsPC-1 cells (KRAS G12D mutation); assay: Cell p-ERK assay (HTRF) in AsPC-1 cells; format: cell-based, human; conditions: Homo sapiens, ASPC1, 3 h, AsPC-1 cells, 3 h compound incubation, HTRF p-ERK T202/Y204; read-out: AsPC-1 p-ERK IC50
pIC50: −log10 of the molar value.
metric name: pIC50

CO[C@@H](C)c1ncc(OCCN2CCS(=O)(=O)CC2)cc1-c1c2c3cc(ccc3n1CC(F)(F)F)-c1csc(n1)C[C@H](NC(=O)[C@H]1C[C@@H]1C)C(=O)N1CCC[C@H](N1)C(=O)OCC(C)(C)C2 (atropisomer, axis not shown; (Ra))    9.46
CCn1c(-c2cc(C#CCN3CCCNCC3)cnc2[C@H](C)OC)c2c3cc(ccc31)-c1csc(n1)C[C@H](NC(=O)[C@H]1[C@H](C)[C@@H]1C)C(=O)N1CCC[C@H](N1)C(=O)OCC(C)(C)C2 (atropisomer, axis not shown; (Ra))    9.38
CCO[C@@H](C)c1ncc(N2CCN(CCS(C)(=O)=O)CC2)cc1-c1c2c3cc(ccc3n1CC)-c1csc(n1)C[C@H](NC(=O)[C@H]1[C@H](C)[C@@H]1C)C(=O)N1CCC[C@H](N1)C(=O)OCC1(CC1)C2 (single isomer, unassigned)    7.97
CCn1c(-c2cc(OCCN3CCP(C)(=O)CC3)cnc2[C@H](C)OC)c2c3cc(ccc31)-c1csc(n1)C[C@H](NC(=O)[C@H]1[C@H](C)[C@@H]1C)C(=O)N1CCC[C@H](N1)C(=O)OCC(C)(C)C2 (single isomer, unassigned)    8.47
CCn1c(-c2cc(C#C[C@@H]3COCCN3C)cnc2[C@H](C)OC)c2c3cc(ccc31)-c1csc(n1)C[C@H](NC(=O)[C@H]1[C@H](C)[C@@H]1C)C(=O)N1CCC[C@H](N1)C(=O)OCC(C)(C)C2 (atropisomer, axis not shown; (Ra))    9.41
CCn1c(-c2cc(C#CC(C)(C)N3CCCOCC3)cnc2[C@H](C)OC)c2c3cc(ccc31)-c1csc(n1)C[C@H](NC(=O)[C@H]1[C@H](C)[C@@H]1C)C(=O)N1CCC[C@H](N1)C(=O)OCC(C)(C)C2 (atropisomer, axis not shown; (Ra))    9.48

---

test system: p-ERK in NCI-H441 cells (KRAS G12V mutation); assay: Cell p-ERK assay (HTRF) in NCI-H441 cells; type: cell-based, human; conditions: NCI-H441 cells, 3 h compound incubation, HTRF p-ERK T202/Y204; read-out: H441 p-ERK IC50
Property: log10(IC50); scope: individual compounds
metric name: log10(IC50) (log10 of the value in nM)

CCn1c(-c2cc(C#CCN3CC[C@H](C#N)C3)cnc2[C@H](C)OC)c2c3cc(ccc31)-c1csc(n1)C[C@H](Nc1nnc3cc(C)ccn13)C(=O)N1CCC[C@H](N1)C(=O)OCC(C)(C)C2 (atropisomer, axis not shown; (Ra))    0.09
CCn1c(-c2cc(C#CC(=O)N3CCCOCC3)cnc2[C@H](C)OC)c2c3cc(ccc31)-c1csc(n1)C[C@H](NC(=O)[C@H]1[C@H](C)[C@@H]1C)C(=O)N1CCC[C@H](N1)C(=O)OCC(C)(C)C2 (atropisomer, axis not shown; (Ra)) [Compound Z810]    0.22
CCn1c(-c2cc(C#CCN3CCOC[C@H]3C)cnc2[C@H](C)OC)c2c3cc(ccc31)-c1csc(n1)C[C@H](NC(=O)[C@H]1[C@H](C)[C@@H]1C)C(=O)N1CCCC(N1)C(=O)OCC(C)(C)C2 (atropisomer, axis not shown; (Ra))    -1.10
CCn1c(-c2cc(C#CCN3CCCOCC3)c[n+]([O-])c2[C@H](C)OC)c2c3cc(ccc31)-c1csc(n1)C[C@H](NC(=O)[C@H]1[C@H](C)[C@@H]1C)C(=O)N1CCC[C@H](N1)C(=O)OCC(C)(C)C2 (atropisomer, axis not shown; (Ra))    -0.57
CCn1c(-c2cc(C(C)N3CCN(C)CC3)cnc2[C@H](C)OC)c2c3cc(ccc31)-c1csc(n1)C[C@H](NC(=O)[C@H]1[C@H](C)[C@@H]1C)C(=O)N1CCC[C@H](N1)C(=O)OCC1(CC1)C2 (some centres unmarked)    1.79
CCn1c(-c2cc(C#CCN3CCOC[C@@H]3C)cnc2[C@H](C)OC)c2c3cc(ccc31)-c1csc(n1)C[C@H](NC(=O)[C@H]1[C@H](C)[C@@H]1C)C(=O)N1CCCC(N1)C(=O)OCC(C)(C)C2 (atropisomer, axis not shown; (Ra))    -0.85
CCn1c(-c2cc(C#CCN3CCCOCC3)cnc2[C@H](C)OC)c2c3cc(ccc31)-c1csc(n1)C[C@H](Nc1nnc3cc(Br)ccn13)C(=O)N1CCC[C@H](N1)C(=O)OCC(C)(C)C2    0.74
CCn1c(-c2cc(C#CCN3CCCOCC3)cnc2[C@H](C)OC)c2c3cc(ccc31)-c1csc(n1)C[C@H](NP(=O)(CC)CC)C(=O)N1CCC[C@H](N1)C(=O)OCC(C)(C)C2 (atropisomer, axis not shown; (Ra))    0.97

---

tested on: p-ERK in NCI-H441 cells (KRAS G12V mutation); test: Cell p-ERK assay (HTRF) in NCI-H441 cells; format: cell-based, human; settings: NCI-H441 cells, 3 h compound incubation, HTRF p-ERK T202/Y204; read-out: H441 p-ERK IC50
compounds and their reported log10(IC50)
metric name: log10(IC50) (log10 of the value in nM)

CCn1c(-c2cc(N3CCN4CCOC[C@@H]4C3)cnc2[C@H](C)OC)c2c3cc(ccc31)-c1csc(n1)C[C@H](NC(=O)[C@H]1[C@H](C)[C@@H]1C)C(=O)N1CCC[C@H](N1)C(=O)OCC(C)(C)C2 [Compound Z72]    -0.51
CCn1c(-c2cc(C#CCN3CCS(=O)(=O)CC3)cnc2C(C)OC)c2c3cc(ccc31)-c1csc(n1)CC(NC(=O)CC1CC1)C(=O)N1CCCC(N1)C(=O)OCC(C)(C)C2 (atropisomer, axis not shown; (Ra)) [Compound Z962]    -0.82
CCn1c(-c2cc(C#CCN3CCC3)cnc2[C@H](C)OC)c2c3cc(ccc31)-c1csc(n1)C[C@H](NC(=O)[C@H]1[C@H](C)[C@@H]1C)C(=O)N1CCC[C@H](N1)C(=O)OCC(C)(C)C2 [Compound Z361]    0.42
CCn1c(-c2cc(OCCN3CCS(=O)(=O)C(C)(C)C3)cnc2[C@H](C)OC)c2c3cc(ccc31)-c1csc(n1)C[C@H](NC(=O)[C@H]1C[C@@H]1C)C(=O)N1CCC[C@H](N1)C(=O)OCC(C)(C)C2 (atropisomer, axis not shown; (Ra)) [Compound Z665]    -0.96
CCn1c(-c2cc(N3CCN(C)CC3)cnc2[C@H](C)OC)c2c3cc(ccc31)-c1csc(n1)C[C@H](Nc1nnc3cc(OC)ccn13)C(=O)N1CCC[C@H](N1)C(=O)OCC(C)(C)C2 (atropisomer, axis not shown; (Ra)) [Compound Z777]    1.35
CCn1c(-c2cc(OCCN3CCOC4(CC4)C3)cnc2[C@H](C)OC)c2c3cc(ccc31)-c1csc(n1)C[C@H](NC(=O)[C@H]1[C@H](C)[C@@H]1C)C(=O)N1CCC[C@H](N1)C(=O)OCC(C)(C)C2 [Compound Z83]    -0.12
CCn1c(-c2cc(C#CC3(N4CCCOCC4)CC3)cnc2[C@H](C)OC)c2c3cc(ccc31)-c1csc(n1)C[C@H](NC(=O)[C@H]1[C@H](C)[C@@H]1C)C(=O)N1CCC[C@H](N1)C(=O)OCC(C)(C)C2 (atropisomer, axis not shown; (Ra)) [Compound Z645]    -0.32
CCn1c(-c2cc(C#CC(C)(C)N3CCC(OC)CC3)cnc2[C@H](C)OC)c2c3cc(ccc31)-c1csc(n1)C[C@H](NC(=O)[C@H]1[C@H](C)[C@@H]1C)C(=O)N1CCC[C@H](N1)C(=O)OCC(C)(C)C2 (atropisomer, axis not shown; (Ra)) [Compound Z628-1]    -0.46
